Catalogue of IC50 readings, one per entry.
measured.on: PAR2 (HT-29 cells) (Homo sapiens)
Construct: host or cells: HT-29
Sequence (P55085 26-397): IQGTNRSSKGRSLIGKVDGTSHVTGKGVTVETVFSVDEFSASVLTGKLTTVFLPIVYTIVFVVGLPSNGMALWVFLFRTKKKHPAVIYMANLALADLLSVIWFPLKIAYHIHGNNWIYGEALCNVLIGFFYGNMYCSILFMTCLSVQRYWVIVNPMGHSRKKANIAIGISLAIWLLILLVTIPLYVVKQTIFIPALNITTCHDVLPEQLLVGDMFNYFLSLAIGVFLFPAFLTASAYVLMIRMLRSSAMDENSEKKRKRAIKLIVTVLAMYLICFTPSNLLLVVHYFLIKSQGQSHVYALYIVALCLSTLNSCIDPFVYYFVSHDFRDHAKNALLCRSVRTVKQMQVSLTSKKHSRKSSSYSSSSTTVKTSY
test.summary: Ca FLIPR TETRA assay, ANTAGONIST mode, activator 3.1 U/mL trypsin
Type: cell-based
condition.parameters: HT-29 cells; activator 3.1 U/mL trypsin; Method A: maximal concentration of antagonist 0.1, 1 or 2 μM
Experimental: Protocol for Testing PAR2 Compounds in ANTAGONIST Mode Using the Ca FLIPR^TETRA Assay (384 Well). […] A first read was performed to determine whether the test compounds on their own can activate Ca^2+ responses. The cells were incubated with the compounds for 30 min at r. t. and then read in ANTAGONIST mode in the same plate by stimulating with 6.2 uL of a fixed concentration of the activator: final concentrations 8 μM SLIGKV, 1 U/mL Thrombin, 3.1 U/mL trypsin, or 0.6 μM UTP.
Note: unit nM is implicit; provide only the numeric part.

Check out these entries, answers already filled in.
>>> readout_number("CC(C)(C)c1cc(-c2ccc(Cl)cc2)nc2cc(C(=O)N3CCN(c4cnccn4)CC3(C)C)oc12 [Example I-368]")
9.5
>>> readout_number("CC(C)(C)c1cc(-c2ccc(Cl)cc2)nc2cc(C(=O)N3CCN(C(=O)CCC(=O)O)CC3(C)C)oc12")
9.8
>>> readout_number("Cn1cnnc1N1CCN(C(=O)c2cc3nc(C4CCC(C)(C)CC4)cc(C(C)(C)C)c3o2)C(C)(C)C1")
5
>>> readout_number("CCS(=O)(=O)NCC(=O)N1CCN(C(=O)c2cc3nc(-c4ccc(Cl)cc4)cc(C(C)(C)C)c3o2)C(C)(C)C1")
7.7
>>> readout_number("CC(C)(C)c1cc(-c2ccc(Cl)c(F)c2)nc2cc(C(=O)N3CCN(c4cc(C(=O)O)c(F)cn4)CC3(C)C)oc12")
2.3
>>> readout_number("CC1(C)CCC(c2cc(C(C)(C)C)c3oc(C(=O)N4CCN(C(=O)[C@H]5CC[C@](C)(C(=O)O)CC5)CC4(C)C)cc3n2)CC1")
17
>>> readout_number("CC1(C)CCC(c2cc(C(C)(C)C)c3oc(C(=O)N4CCN(C(=O)c5ccc(C(=O)O)cn5)CC4(C)C)cc3n2)CC1")
56
>>> readout_number("CC(C)(C)c1cc(-c2ccc(Cl)c(F)c2)nc2cc(C(=O)N3CCN(c4ncc(F)cc4C(=O)O)CC3(C)C)oc12")
17

Enquiry: Entry CC(C)(C)c1cc(-c2ccc(Cl)c(F)c2)nc2cc(C(=O)N3CCN(c4ccn[nH]4)C(=O)C3(C)C)oc12 : reported IC50 = ?
Return: 8.8

Enquiry: Now this one: CN1CCN(C(=O)c2cc3nc(C4CCC(F)(F)CC4)cc(C(C)(C)C)c3o2)C(C)(C)C1=O
Return: 260

Enquiry: Could you do the same for CC1(C)CCC(c2cc(C(C)(C)C)c3oc(C(=O)N4CCN(C(=O)C5CC6(CC(C(=O)O)C6)C5)CC4(C)C)cc3n2)CC1 (centres unmarked) , please?
Return: 1.2

Enquiry: Same question for CC(C)(C)c1cc(-c2ccc(Cl)c(F)c2)nc2cc(C(=O)N3CCC(c4ncc(C(=O)O)cn4)CC3(C)C)oc12 (centres unmarked) please.
Return: 0.7

Enquiry: Try this compound too: CC(C)[C@@H](CC(=O)N1CCN(C(=O)c2cc3nc(C4CCC(C)(C)CC4)cc(C(C)(C)C)c3o2)C(C)(C)C1)C(=O)O
Return: 0.2

Enquiry: And then CC1(C)CCC(c2cc(C(C)(C)C)c3oc(C(=O)N4CCN(C(=O)CC(C)(C)C(=O)O)CC4(C)C)cc3n2)CC1 , what is it?
Return: 0.7

Enquiry: Next compound: CN1CCN(C(=O)c2cc3nc(C4CCC(C)(C)CC4)cc(C(C)(C)C)c3o2)C(C)(C)C1=O
Return: 10

Enquiry: Then this compound: Cc1cncc(N2CCN(C(=O)c3cc4nc(-c5ccc(Cl)cc5)cc(C(C)(C)C)c4o3)C(C)(C)C2)n1
Return: 10

Enquiry: Consider next the compound Cc1nc(N2CCN(C(=O)c3cc4nc(C5CCC(C)(C)CC5)cc(C(C)(C)C)c4o3)C(C)(C)C2)ccc1C(=O)O in the same way.
Return: 0.6

Enquiry: Also CC(C)(C)c1cc(-c2ccc(Cl)c(F)c2)nc2cc(C(=O)N3CCN(C(=O)CCC(=O)O)CC3(C)C)oc12 , if possible.
Return: 3

Enquiry: Now the same for CC1(C)CCC(c2cc(C(C)(C)C)c3oc(C(=O)N4CCN(c5ccc(C(=O)O)cn5)CC4(C)C)cc3n2)CC1
Return: 0.8

Enquiry: Same lookup for CC(C)(C)c1cc(-c2ccc(F)cc2)nc2cc(C(=O)N3CCN(C(=O)[C@H]4C[C@@](C)(O)C4)C(C)(C)C3)oc12 , please.
Return: 730

Enquiry: Please give the result for Cn1cc(N2CCN(C(=O)c3cc4nc(-c5ccc(Cl)c(F)c5)cc(C(C)(C)C)c4o3)C(C)(C)C2=O)nn1 too.
Return: 14.1

Enquiry: What do you have for CC(C)(C)c1cc(-c2ccc(Cl)c(F)c2)nc2cc(C(=O)N3CCN(C(=O)[C@@H]4CCC[C@H](C(=O)O)C4)CC3(C)C)oc12 ?
Return: 0.7

Enquiry: CC(C)(C)c1cc(-c2ccc(Cl)c(F)c2)nc2cc(C(=O)N3CCc4cnc(CC(=O)O)nc4C3(C)C)oc12 ?
Return: 0.9
